Target: SCD1 (Homo sapiens (Human))
Experiment: SCD1 13C-palmitic acid assay in A431 cells
Type: cell-based
Details: read-out: A431 cells 13C-PA IC50
MEASURED METRIC: pIC50
As a rule, pIC50 stands for the negative log10 of the concentration, concentration in M.

In: Tell me measured pIC50 for `Cc1cc(-c2ccc(N3CCC(c4noc5ccc(F)cc45)CC3)nn2)ccn1` please.
Out: 7.77

In: Find the measured pIC50 of `Fc1ccc2onc(C3CCN(c4ccc(-c5cn[nH]c5)nn4)CC3)c2c1` and report it.
Out: 6.95

In: Determine its reported pIC50: `CCOCCn1cc(-c2ccc(N3CCC(N4CCc5ccc(F)cc54)CC3)nn2)cn1`
Out: 7.39

In: // Input: `COc1ncc(-c2ccc(N3CCC(N4CCc5ccc(F)cc54)CC3)nn2)cn1` . Output its pIC50 only.
Out: 7.47

In: Determine its reported pIC50: `Cn1cc(-c2ccc(N3CCC(n4ncc5c(F)cccc54)CC3)nn2)cn1`
Out: 7.09

In: For `CCn1cc(-c2ccc(N3CCC(c4noc5ccc(F)cc45)CC3)nn2)cn1` , write its pIC50.
Out: 6.01

In: Give pIC50 for the following molecule: `OCc1ccc(-c2ccc(N3CCC(N4CCc5ccc(F)cc54)CC3)nn2)cc1`
Out: 8.10

In: Name the recorded pIC50 of the molecule listed here: `Cn1cc(-c2ccc(N3CCC(N4CCc5cc(F)ccc54)CC3)nn2)cn1`
Out: 7.00

In: Kindly indicate its recorded pIC50. Item: `CNC(=O)c1ccc(-c2ccc(N3CCC(N4CCc5ccc(F)cc54)CC3)nn2)cn1`
Out: 8.22

In: For `COCc1cnn(-c2ccc(N3CCC(c4noc5ccc(F)cc45)CC3)nn2)c1` , write its pIC50.
Out: 7.66

In: Please give measured pIC50 of the following entry: `OCc1ccc(-c2ccc(N3CCC(c4noc5ccc(F)cc45)CC3)nn2)cn1`
Out: 8.70

In: Quote pIC50 reported for `Cc1ccc(-c2ccc(N3CCC(N4CCc5ccc(F)cc54)CC3)nn2)s1` please.
Out: 8.22

In: Retrieve pIC50 measured for `Cc1csc(-c2ccc(N3CCC(c4noc5ccc(F)cc45)CC3)nn2)n1` and print it.
Out: 8.52

In: Provide measured pIC50 value, entry: `Cc1cnn(-c2ccc(N3CCC(N4CCc5ccc(F)cc54)CC3)nn2)c1`
Out: 7.64

In: For the molecule `NC(=O)Cn1cc(-c2ccc(N3CCC(N4CCc5ccc(F)cc54)CC3)nn2)cn1` , give its measured pIC50 value.
Out: 6.25

In: For the molecule `COc1ccc2c(c1)N(C1CCN(c3ccc(-c4cnn(C)c4)nn3)CC1)CC2` , give its reported pIC50.
Out: 6.39

In: Supply recorded pIC50 for `Fc1ccc2c(c1)N(C1CCN(c3ccc(-c4ccc(C(F)(F)F)cc4)nn3)CC1)CC2` here.
Out: 7.27

====

Target: SCD1 (Rattus norvegicus (Rat))
Sequence (P07308 whole entry): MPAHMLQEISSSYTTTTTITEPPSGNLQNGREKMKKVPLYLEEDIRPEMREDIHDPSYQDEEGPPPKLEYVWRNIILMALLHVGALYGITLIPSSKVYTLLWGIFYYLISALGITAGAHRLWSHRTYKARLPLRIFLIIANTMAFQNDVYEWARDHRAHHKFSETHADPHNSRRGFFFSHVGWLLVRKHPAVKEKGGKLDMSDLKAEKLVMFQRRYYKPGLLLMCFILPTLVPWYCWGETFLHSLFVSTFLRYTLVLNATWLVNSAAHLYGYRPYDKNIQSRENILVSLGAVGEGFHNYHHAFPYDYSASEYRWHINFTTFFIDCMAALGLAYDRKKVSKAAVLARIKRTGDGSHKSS
Assign IC50 to each entry below.
Please give a number only; it is taken to be in nM.

In: Provide only the value of recorded IC50 for `Cc1ccn(-c2ccc(N3CCC(c4noc5ccc(F)cc45)CC3)nn2)n1`
Out: 126

In: Fill in IC50 for record `CCn1cc(-c2ccc(N3CCC(N4CCc5ccc(F)cc54)CC3)nn2)cn1`
Out: 17

In: For the compound `OCc1cn(-c2ccc(N3CCC(N4CCc5ccc(F)cc54)CC3)nn2)cn1` , give its measured IC50 value.
Out: 11

In: Write down IC50 measured for item `CCOCCn1cc(-c2ccc(N3CCC(N4CCc5ccc(F)cc54)CC3)nn2)cn1`
Out: 12

In: Entry `OCCn1cc(-c2ccc(N3CCC(n4ncc5ccc(F)cc54)CC3)nn2)cn1` needs its IC50 filled in; supply it.
Out: 53

In: Hello, please tell me recorded IC50 for this one: `COc1ccc(-c2ccc(N3CCC(N4CCc5ccc(F)cc54)CC3)nn2)cn1`
Out: 12

In: Respond only with IC50 recorded for `OCc1ccc(-c2ccc(N3CCC(N4CCc5ccc(F)cc54)CC3)nn2)cn1`
Out: 9

In: Input `O=C(O)c1ccc(-c2ccc(N3CCC(N4CCc5ccc(F)cc54)CC3)nn2)cc1` , output reported IC50.
Out: 349

In: Answer with the recorded IC50 of `Cn1cc(-c2ccc(N3CCC(n4ncc5cc(F)ccc54)CC3)nn2)cn1` only.
Out: 145

In: Please indicate IC50 recorded for `CCOC(=O)Cn1cc(-c2ccc(N3CCC(N4CCc5ccc(F)cc54)CC3)nn2)cn1`
Out: 31

In: Answer with the recorded IC50 for the compound listed here: `Cc1csc(-c2ccc(N3CCC(c4noc5ccc(F)cc45)CC3)nn2)n1`
Out: 21

In: For the compound `Fc1ccc2c(c1)N(C1CCN(c3ccc(-c4cnn(CCN5CCOCC5)c4)nn3)CC1)CC2` , give its measured IC50 value.
Out: 275

In: In one line, give reported IC50 of the entry `CNC(=O)Cn1cc(-c2ccc(N3CCC(N4CCc5ccc(F)cc54)CC3)nn2)cn1` .
Out: 15

In: Return IC50 for the following compound: `Fc1ccc2c(c1)N(C1CCN(c3ccc(-c4ccc(C(F)(F)F)cc4)nn3)CC1)CC2`
Out: 90

In: Tell me its IC50 given `CCn1cc(-c2ccc(N3CCC(c4noc5ccc(F)cc45)CC3)nn2)cn1` as the entry.
Out: 70

In: Kindly indicate its recorded IC50. Item: `CCCn1cc(-c2ccc(N3CCC(N4CCc5ccc(F)cc54)CC3)nn2)cn1`
Out: 22

====

Target: SCD1 (Homo sapiens (Human), UniProt O00767)
Sequence (O00767 whole entry): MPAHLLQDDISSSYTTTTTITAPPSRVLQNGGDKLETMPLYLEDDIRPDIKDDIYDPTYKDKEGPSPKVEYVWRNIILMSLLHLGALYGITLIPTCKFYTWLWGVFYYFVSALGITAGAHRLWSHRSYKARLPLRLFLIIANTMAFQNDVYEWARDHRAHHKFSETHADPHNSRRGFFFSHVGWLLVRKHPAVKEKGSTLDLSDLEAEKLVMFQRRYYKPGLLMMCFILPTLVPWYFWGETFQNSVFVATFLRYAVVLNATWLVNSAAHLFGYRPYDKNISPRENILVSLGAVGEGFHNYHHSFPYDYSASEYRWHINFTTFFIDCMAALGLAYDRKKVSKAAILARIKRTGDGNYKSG
Test: SCD1 13C-palmitic acid assay in A431 cells
Assay type: cell-based
Settings: read-out: A431 cells 13C-PA IC50
MEASURED METRIC: IC50
Number plus unit, in that order.

In: Output measured IC50 for this item: OCCn1cc(-c2ccc(N3CCC(n4ncc5ccc(F)cc54)CC3)nn2)cn1 [compound 82]
Out: 96 nM

In: Fill in reported IC50 for this entry: Cc1cnn(-c2ccc(N3CCC(c4noc5ccc(F)cc45)CC3)nn2)c1 [compound 94]
Out: 40 nM

In: Give recorded IC50. CCOCCn1cc(-c2ccc(N3CCC(c4noc5ccc(F)cc45)CC3)nn2)cn1 [compound 75]
Out: 81 nM

In: Note down IC50 recorded for Cn1cc(-c2ccc(N3CCC(n4ncc5ccccc54)CC3)nn2)cn1 [compound 40]
Out: 45 nM

In: Given COc1ccc(-c2ccc(N3CCC(N4CCc5ccc(F)cc54)CC3)nn2)cn1 [Compound #37] , respond with its IC50.
Out: 4 nM

In: Indicate the recorded IC50 value for this compound: Cc1csc(-c2ccc(N3CCC(N4CCc5ccc(F)cc54)CC3)nn2)n1 [Compound #29]
Out: 2 nM

In: Supply measured IC50 of CC(=O)Nc1ccc(-c2ccc(N3CCC(N4CCc5ccc(F)cc54)CC3)nn2)cn1 [compound 45] in your reply.
Out: 6 nM

In: Give me measured IC50, please, for this compound: OCc1nnc(-c2ccc(N3CCC(c4noc5ccc(F)cc45)CC3)nn2)o1 [compound 20]
Out: 11 nM

In: Give a short answer stating reported IC50 for Cn1cc(-c2ccc(N3CCC(n4nc(Cl)c5ccccc54)CC3)nn2)cn1 [compound 83] .
Out: 11 nM

In: Answer with the recorded IC50 for the compound listed here: CNC(=O)Cn1cc(-c2ccc(N3CCC(N4CCc5ccc(F)cc54)CC3)nn2)cn1 [Compound #64]
Out: 12 nM

In: Provide IC50 value for the following compound: OCc1ccc(-c2ccc(N3CCC(N4CCc5ccc(F)cc54)CC3)nn2)cn1 [Compound #39]
Out: 0.5 nM

In: Tell us which IC50 value is on record for CCCn1cc(-c2ccc(N3CCC(N4CCc5ccc(F)cc54)CC3)nn2)cn1 [Compound #79]
Out: 72 nM

In: Recall and state the measured IC50 for Cn1cc(-c2ccc(N3CCC(N4CCc5cc(Cl)ccc54)CC3)nn2)cn1 [Compound #65] .
Out: 218 nM

In: // Input: OCCc1cnn(-c2ccc(N3CCC(N4CCc5ccc(F)cc54)CC3)nn2)c1 [Compound #43] . Output its IC50 only.
Out: 11 nM

In: Output IC50 of Cn1cc(-c2ccc(N3CCC(N4CCc5ccc(Cl)cc54)CC3)nn2)cn1 [Compound #59]
Out: 28 nM

In: Please indicate IC50 recorded for Cc1ccc2c(c1)N(C1CCN(c3ccc(-c4cnn(C)c4)nn3)CC1)CC2 [Compound #57]
Out: 241 nM

In: Write down IC50 measured for item CCOC(=O)Cn1cc(-c2ccc(N3CCC(N4CCc5ccc(F)cc54)CC3)nn2)cn1 [compound 50]
Out: 44 nM
